Catalogue of compounds with associated relative CLso titer
System: Candidatus Liberibacter solanacearum in potato hairy roots
Experiment: relative CLso titer (% of untreated control); higher = less inhibition of bacterial titer
Details: 10 µM; 72 h
Please respond with the number in % and leave the unit unwritten.

Exercise: Find the measured relative CLso titer of CN1C[C@H](C(=O)N[C@]2(C)O[C@@]3(O)[C@@H]4CCCN4C(=O)[C@H](Cc4ccccc4)N3C2=O)C[C@@H]2c3cccc4[nH]cc(c34)C[C@H]21 with Candidatus Liberibacter solanacearum in potato hairy roots as test system.
Key: 107

Exercise: Give relative CLso titer only, for C[C@@H]1C[C@@H]([C@H](O)CC2CC(=O)NC(=O)C2)C(=O)[C@@H](C)C1 , using Candidatus Liberibacter solanacearum in potato hairy roots data.
Key: 214

Exercise: # return relative CLso titer for COc1cc2c(c(OC)c1OC)-c1ccc(OC)c(=O)cc1[C@@H](NC(C)=O)CC2 , test system: Candidatus Liberibacter solanacearum in potato hairy roots
Key: 47.6

Source of measurements: the supplement of paper PMC7669877
